# method_summary: Cytotoxicity against Sprague-Dawley rat calvarial osteoblast cells at 10 pM to 1 uM after 48 hrs by MTT assay
# Format: cell-based
measured_property: Activity

Please review the entries below; each comes with its answer.
O=P([O-])([O-])C(O)(CCCn1c2c(c3ccccc31)CCSc1ccccc1-2)P(=O)([O-])[O-].[Na+].[Na+].[Na+].[Na+]
Active
CCOP(=O)(OCC)C(O)(CCCCCn1c2c(c3ccccc31)CCCc1ccccc1-2)P(=O)(OCC)OCC
Not Active
CCOP(=O)(OCC)C(O)(CCCCn1c2c(c3ccccc31)CCSc1ccccc1-2)P(=O)(OCC)OCC
Not Active
O=P([O-])([O-])C(O)(CCn1c2c(c3ccccc31)CCSc1ccccc1-2)P(=O)([O-])[O-].[Na+].[Na+].[Na+].[Na+]
Active
O=P([O-])([O-])C(O)(Cn1c2c(c3ccccc31)CCSc1ccccc1-2)P(=O)([O-])[O-].[Na+].[Na+].[Na+].[Na+]
Active

Give measured Activity for every item shown.
1. CCOP(=O)(OCC)C(O)(CCCCn1c2c(c3ccccc31)CCCc1ccccc1-2)P(=O)(OCC)OCC
2. CCOP(=O)(OCC)C(O)(CCCCCn1c2c(c3ccccc31)CCSc1ccccc1-2)P(=O)(OCC)OCC

1: Not Active; 2: Not Active

* * *

# method_summary: Cytotoxicity against Sprague-Dawley rat calvarial osteoblast cells at 10 pM to 1 uM after 48 hrs by MTT assay
# Assay type: cell-based
measured_property: Activity

CCOP(=O)(OCC)C(O)(CCCCCCn1c2c(c3ccccc31)CCSc1ccccc1-2)P(=O)(OCC)OCC
Not Active
O=P([O-])([O-])C(O)(CCCCn1c2c(c3ccccc31)CCSc1ccccc1-2)P(=O)([O-])[O-].[Na+].[Na+].[Na+].[Na+]
Not Active
